- experiment_description: yeast display, Sf9 membrane polyspecificity reagent, FACS + sequencing; frameworks hold sequencing errors
metric_name: polyreactivity (PSR sort gate)

Use the examples below as a reference point.
QVQLVESGGGLVQAGGSLRLSCAASGFTFRYYAMGWYRQAPGKERELVAAISSGGRTNYADSVKGRFTISRDNAKNTVYLQMNSLKPEDTAVYYCAKAQYYYIGDYDYWGQGTQVTVSS    high polyreactivity
QVQLVESGGGLVQAGGSLRLSCAASGSIFVHNTMGWYRQAPGKERELVAAITRSVGRTYYADSVKGRFTISRDNAKNTVYLQMNSLKPEDTAVYYCAARKNYGSRLSYEYWGQGTQVTVSS    high polyreactivity
QVQLVESGGGLVQAGGSLRLSCAASGLIFQGYAMGWYRQAPGKEREFVAVITWSGGSTYYADSVKGRFTISRDNAKNTVYLQMNSLKPEDTAVYYCADDDVWYDFDYWGQGTQVTVSS    low polyreactivity
QVQLVESGGGLVQAGGSLRLSCAASGSTFSDNAMGWYRQAPGKERELVAAITSGGSTYYADSVKGRFTISRDNAKNTVYLQMNSLKPEDTAVYYCAADYWGQGTQVTVSS    low polyreactivity
QVQLVESGGGLVQAGGSLRLSCAASGFTFDYNAMGWYRQAPGKDRELVAAISESGGSTYYADSVKGRFTISRDNAKNTVYLQMNSLKPEDTAVYYCPTDFPVYYDYGYWGQGTQVTVSS    high polyreactivity

input: Indicate its recorded polyreactivity (PSR sort gate); the sequence in question is `QVQLVESGGGLVQAGGSLRLSCAASGRTFGSNAMGWYRQAPGKERELVAAISLRGGRTYYADSVKGRFTISRDNAKNTVYLQMNSLKPEDTAVYYCNAVHYLYGARSRLTYDYWGQGTQVTVSS`
output: high polyreactivity

input: Specify measured polyreactivity (PSR sort gate) for `QVQLVESGGGLVQAGGSLRLSCAASGRIFPYYAMGWYRQAPGKERELVATISSGGRTNYADSVKGRFTMSRDNAKNTVYVQMNSLKPEDTAVYYCAADYRTPTDVEYDYWGQGTQVTVSS` .
output: high polyreactivity

input: Quickly give me recorded polyreactivity (PSR sort gate) for `QVQLVESGGGLVQAGGSLRLSCAASGSIFPEYVMGWYRQAPGKERELVAAISWSGGSTYYADSVKGRFTISRDNAKNTVYLQMNSLKPEDTAVYYCNRVPSWRIDYDYWGQGTQVTVSS`
output: low polyreactivity

input: Given the sequence `QVQLVESGGGLVQAGGSLRLTCAASGSIFFQNAMGWYRQAPGKERELVATITSSVGSTYYADSVKGRFTISRDNAKNTVYFQMNSLKPEDTAVYYCNVRVFSAALWYTYFGYDYWGQGTQVTVSS` , write its reported polyreactivity (PSR sort gate).
output: low polyreactivity

input: Supply reported polyreactivity (PSR sort gate) belonging to this sequence: `QVQLVESGGGLVQAGGRLRLSCAPSGSTFHSNDMGWYRQAPGKERELVAAITWSGARTYYVDSVKGRFTISRDNAKNTVYLQMNSLKPEDTAVYSCAKKAPSDRNNYWGQGTQVTVSS`
output: high polyreactivity

----------
- experiment_description: yeast display, Sf9 membrane polyspecificity reagent, FACS + sequencing; frameworks hold sequencing errors
metric_name: polyreactivity (PSR sort gate)

The cases that follow already have their polyreactivity (PSR sort gate) on record.
QVQLVESGGGLVQAGGSLRLSCAASGSIFVGYAMGWYRQAPGKERELVASITTRGGSTHYADSVKGRFTISRDNAKNTVYLQMNSLKPEDTAVYYCAADSLSNGVLQYLPGYDYWGQGTQVTVSS    low polyreactivity
QVQLVESGGGLVQAGGSLRLSCAASGRIFTFYAMGWYRQAPGKERELVAAISSGGSTYYADSVKGRFTISRDNAKNTVYLQMHSLKPEDTAVYYCAAEPVWYADYDYWGQGTQVTVSS    low polyreactivity
QVQLVESGGGLVHAGGSLRLSCAASGRTFASYAIGWYRQAPGKERELVARISKSGGSTYYADSVKGRFTISRDNAKNTVYLQMNSLKPEDTAVYYCAATRYPYLYRSEVGSDYWGQGTQVTVSS    low polyreactivity
QVQVVESGAGEVQAGGSLRLSCAASGSIFPFNAMGWYRQAPGKERELVAAISVNGGSTYYADSVKGRFTISRDNAKNTVYIQMNSLKPEDTAVYYCNTGGTFLDWVRRPFGFGYWGQGTQVTVSS    low polyreactivity
QVQLVESGGGLVQAGGSLRLSCAASGFTFFYYVMGWYRQAPGKERELVAAISSGGSTYYADSVKGRFTISRDNAKNTVYLQMNSLKPEDTAVYYCNAVYRSTWWGYDYWGQGTQVTVSS    high polyreactivity

input: Give the reported value of polyreactivity (PSR sort gate) for this record: `QVQLVESGGGLVQAGGSLRLSCAASGSIFQSYDMGWSRQAPGKERELVAAITRSGGRTYYAASVKGRFTISRDNAKNTVYLQMNSLKPEDTAVYYCAAFGWGYGYWGQGTQVTVSS`
output: high polyreactivity

input: Give reported polyreactivity (PSR sort gate) value for `QVQLVESGGGLVQAGGSLRLRCAASGRTFTYNAMVWYRQAPGKERELVPANNFSGVSTYYADSVKGRFTISRDNAKNTVYLQMNILKPEVTAVYYCAARGSARKSFPYPLEYWGQGTQVTVSS`
output: high polyreactivity

input: Please list polyreactivity (PSR sort gate) recorded for the sequence `QVQLVESGGGLVQAGGSLRLSCAASGNTFFVYAMGWYRQAPGKERELVADINWSTGSTYYADFVKGRFTLSRDNAKNTVYLQMNSLKPEDTAVYYCAAEAYYYVIFHGSWYTDDYWGQGTQVTVSS`
output: low polyreactivity

input: Give reported polyreactivity (PSR sort gate) value for `QVQLVESGGGLVQAGGSLRLSSPASGRTFGRYTMGWYRQAPGKESELVATISYNGGRTYYADSVKGRFTISRDNAKNTVYLQMNSRKPEDTAVNYCATRLPKSSLHDYWGQGTQVTVSS`
output: high polyreactivity

input: Note down polyreactivity (PSR sort gate) recorded for `QVQLVESGGGLVQAGGSLRLSCAASGRIFSTYAMGWYRQAPGKERELVAAINSIGGRTYYADSVKGRFTISRDNAKNTVYLQMNSMKPEDTAVYYCAASRFRTGQEDDYWGQGTQVTVSS`
output: high polyreactivity

input: Give the reported value of polyreactivity (PSR sort gate) for this record: `QVQLVESGGGLVQAGGSLRLSCAASGSTFPYYAMGWYRQAPGKERELVAAISQNGGSTYYADSVKGRFTISRDNAKNTVYLQMNSLKPEDTAVYYCNADGVGGEYRLSGYDYWGQGTQVTVSS`
output: low polyreactivity

----------
- experiment_description: yeast display, Sf9 membrane polyspecificity reagent, FACS + sequencing; frameworks hold sequencing errors
metric_name: polyreactivity (PSR sort gate)

Reference set (8 entries):
QVQLVESGGGLVQAGGSLRLSCAASGRTSRVYAMGWYRQAPGTERELVAAITWRGGNTYYADSVKGRFTISRDHAKNTVYLQMNSMKPEDTAVYYCAADPWSYGSWHGDSWGQGTQVTVSS    high polyreactivity
QVQLVESGGGLVQAGGSLRLTCGASGFTFDSYAMGWSRQEPGKERELVAAISTIGGRTYYADSVKGRFTISRDNAKNTVYLQMNSLKPEDTAVYYCAAEQGTPSTNWYDYWGQGTQVTVSS    low polyreactivity
QVQLVESGGGLVQAGGSLRLSCAASGSISYFNAMGWYRQAPGKERELVAAITSGGSTYYADSVKGRFTISLDNAKNTVYLQMNSLKPEDTAVYYCNAPLEWGVYAAQNWDDGYWGQGTQVTVSS    low polyreactivity
QVQLVESGGGLVQAGGSLRLSCAASGFIFTRYAMGWYRPAPGKERELVAAISASGGSTYYADSVKGRFTISRDNAKNTVYLQMNSLKPEDTAVYYCAAGGSWFRYPPRMDYWGQGTQVTVSS    high polyreactivity
QVQLVESGGGLVQAGGSLRLSCAASGSIFRKYAMGWYRQAPGKERELVAAITGSGGSTYYADSVKGRFTISRDNAKNTVYLQMNSLKPEDTAVYYCAAPFGWRPLPISKVTSDYWGQGTQVTVSS    high polyreactivity
QVQLVESGGGLVQAGRSLRLICAASGFTSHVYAMGWYRQAPGKERELVAAISSGSSTYYADSVKGRFTISRDNAKNTVYLQRNSLKPEDTAVYYCATTHKTLRRYESWGQGTQVTVSS    low polyreactivity
QVQLVESGGGLVQAGGSLRLSCAASGSTFNTNAMGWYRQAPGKERELVAAITSSGGGTYYADSVKGRFTISRDNAKNTVYLQMNSLKPEDTAVYYCNAVSGWYNSITYDYWGQGTQVTVSS    high polyreactivity
QVQLVESGGGLVQAGGSLRLSCAASGSIFYYNGMGWYRHAPGKERELVASISRGGGTNYADSVKGRFTISRDNAKNTVYLQMNSLKPEDTAVYYCNARYPRSSPFGYWGLGTQVTVSS    high polyreactivity

input: State, in one line, measured polyreactivity (PSR sort gate) of `QVQLLESGGGLVQAGGSLRLSCAASGRIFGYYAMGWYRQAPGKERELVASISWSGGSTYYADSVKGRFSISRDNAKNTVYLQMNSLKPEDTAVYYCAAKRSFLSTIGNYDYWGQGTQVTVSS`
output: high polyreactivity

input: Query polyreactivity (PSR sort gate) for `QVQLVESGGGLVQAGGSLRLSCAASGRTIHFNTMGWYRQAPGKERELVAAIRWGGNTYYADSVKGRFTISRDNAKNTVYLQKNSLKPEDTAVYYCAADRWYYFLMYYWGQGTQVTVSS`
output: low polyreactivity

input: Entry `QVQLVESGGGLVQAGGSLRLSCAASGRIFSRNAMGWYRQAPGKERDLVAAITWRGGSTNYADSVKGRFTISRDNAKNTVYLQMNSLKPEDTAVYYCAARISRYPQDDSDYWGQGTQVTVSS` needs its polyreactivity (PSR sort gate) filled in; supply it.
output: high polyreactivity

input: Note polyreactivity (PSR sort gate) for the sequence shown: `QVQLVESGGGLVQAGGSLRLSCAASGRTIWTYVMGWYRQAPGKERELVAAISRSGSSTYYADSVKGRFTISRDNAKNTVYLQMNSLKPEDTAVYYCNKVDGTTLDDHYMDYWGQGTQVTVSS`
output: low polyreactivity

input: Dear colleague, please send me the reported polyreactivity (PSR sort gate) for `QVQLVESGGGLVQAGGSLRLSCAASGSTFYPYDMGLYRQAPGKERELVATITSTGGSTNYADSVKGRFTISRDNAQNTVYLQMNSLKPEDTAVYYCAKDWNDDQHSWDTPFDYWGQGTHVTVSS` when you can.
output: low polyreactivity

input: Given the sequence `QVQHVESGGGLVQAGGSLRLSSAASGITFPVYAMGWYRPTPGKERELVAAITFSGSNTYYADSVKGRFTISRDNAKNTVYLQMNSLKPEDTAVYYCNAETGGVYFNYYYVGEYYYWGQGTQVTVSS` , write its reported polyreactivity (PSR sort gate).
output: low polyreactivity

input: Write down polyreactivity (PSR sort gate) measured for item `QVQLVESGGGLVQAGGSLRLSCAASGSIFSPNAMGWYRQAPGKERELVAGISWSGDGTYYADSVKGRFTISRDNAKNTVYLQMNSLKPEDTAVYYCAARFGRYSHRYYYWGQGTQVTVSS`
output: high polyreactivity

input: Note polyreactivity (PSR sort gate) for the sequence shown: `QVQLVESGGGLVQAGGSLRLSCAASGSIFSYYAMGWYRQAPGKERELVASITSGGSTNYADSVKGRFTISRDNAKNTVYLQMNSLKPEDTAVYYCNKDGKYHRVLYDYWGQGTQVTVSS`
output: low polyreactivity

input: Specify polyreactivity (PSR sort gate) for `QDQLVESGGGLVQAGGSLRLSCAASGSIFADYVMGWYRQAPGKERELVAAITRRGRTYYADSVKGRFTISRDNAKNNVYLQMNSLKPEDTAVYYCAKVAYGKIDSWGQGTQVTVSS` and stop.
output: low polyreactivity

input: State its polyreactivity (PSR sort gate) for this sequence: `QVQLVESGGGLVQAGGSLRLSCAASGRTFNRNAMGWYRQAPRKERELVAAISRGGTTSYADSVKGRFTISRDNAKNTVYLQMNSLQPEDTAVYYCAAEPYIQWVYYRGNGRRYGYWGQGTQVTVSS`
output: high polyreactivity

input: Give the reported value of polyreactivity (PSR sort gate) for this record: `QVQLVESGGGLVQAGGSLRLSCAASGIIFRAYAMGWYRQAPGKERELVAAITSRGGSTYYADSVKGRFTISLDNAKNTVYLQKNSLKPEDTAVYYCAADFTIPYWDANFDYWGQGTQVTVSS`
output: low polyreactivity

input: Check the records and state polyreactivity (PSR sort gate) for `QVQLVESGGGLVQAGGSLRLSCAASGSIFWIYAMGWYRQAPGKERELVATITRRGGSTYYADSVKGRFTISRDNAKNTVYLQMNSLKPEDTAVYYCATEPGYTFLTSYKYDYWGQGTQVTVSS`
output: low polyreactivity

input: Complete the entry with polyreactivity (PSR sort gate) for `QVQLVESGGGLVQAGGSLRLSCAASGRIFLGNAMGWYRQAPGKERELVAAIDASGGSTYYADSVKGRFTISRDNAKNTVYLQMNSLKPVDTAVYYCNAEPRYYSGGHGYDYWGQGTQVTVSS`
output: low polyreactivity

Taken from the nanobody polyreactivity screen of Harvey et al. (2022).
